Where do these numbers come from? They come from the supplement of paper PMC7125110.

B1: glmS ribozyme (parent)
chain: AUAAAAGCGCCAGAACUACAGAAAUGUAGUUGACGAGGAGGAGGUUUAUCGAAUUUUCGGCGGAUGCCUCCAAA

# Variants of: B1
# Test: self-cleavage kobs at 10000 uM GlcN6P; higher = faster cleavage; RNA array
# Condition label: with glucosamine-6-phosphate
Variants at the floor of the assay were thinned out.
Endpoint: self-cleavage kobs at 10000 uM GlcN6P

# Residue change, Endpoint, Observed result
data = [
    ("G7U G9U G44A C68G", "self-cleavage kobs at 10000 uM GlcN6P", "< 1e-05 s⁻¹"),
    ("C34A G63U", "self-cleavage kobs at 10000 uM GlcN6P", "< 1e-05 s⁻¹"),
    ("C8A G9U", "self-cleavage kobs at 10000 uM GlcN6P", "< 1e-05 s⁻¹"),
    ("C10A U30C", "self-cleavage kobs at 10000 uM GlcN6P", "< 1e-05 s⁻¹"),
    ("U30G A52C G62U", "self-cleavage kobs at 10000 uM GlcN6P", "< 1e-05 s⁻¹"),
    ("A6G G59A A64U", "self-cleavage kobs at 10000 uM GlcN6P", "< 1e-05 s⁻¹"),
    ("U57A G59U", "self-cleavage kobs at 10000 uM GlcN6P", "< 1e-05 s⁻¹"),
    ("A12U G66U", "self-cleavage kobs at 10000 uM GlcN6P", "0.00479 s⁻¹"),
    ("A12U A33C C34U C70G", "self-cleavage kobs at 10000 uM GlcN6P", "< 1e-05 s⁻¹"),
    ("C8U C61G", "self-cleavage kobs at 10000 uM GlcN6P", "< 1e-05 s⁻¹"),
    ("A6G G9A G44A C71A", "self-cleavage kobs at 10000 uM GlcN6P", "< 1e-05 s⁻¹"),
    ("C11U G29U", "self-cleavage kobs at 10000 uM GlcN6P", "0.000463 s⁻¹"),
    ("A39G A42U", "self-cleavage kobs at 10000 uM GlcN6P", "0.000751 s⁻¹"),
    ("C34U G59C", "self-cleavage kobs at 10000 uM GlcN6P", "< 1e-05 s⁻¹"),
    ("G7U G44C", "self-cleavage kobs at 10000 uM GlcN6P", "< 1e-05 s⁻¹"),
    ("A48G A53G", "self-cleavage kobs at 10000 uM GlcN6P", "0.000105 s⁻¹"),
    ("G7U C10G C68G", "self-cleavage kobs at 10000 uM GlcN6P", "5.21e-05 s⁻¹"),
    ("C8A U56A A64G", "self-cleavage kobs at 10000 uM GlcN6P", "< 1e-05 s⁻¹"),
]
